# System: Penicillium expansum EPS26
# measurement_protocol: MIC, antifungal growth inhibition in microtiter plates (PDB)
# Type: cell-based
# run_conditions: Pe, 22°C, seven days, OD 600 nm, lowest concentration with no growth, given as interval of tested concentrations, three replicates, experiment repeated twice
quantity_measured: MIC

# compound `CCCC(=O)NCCCC[C@H](NC(C)=O)C(=O)N[C@@H](CCCCN)C(=O)N[C@@H](CC(C)C)C(=O)N[C@@H](Cc1ccccc1)C(=O)N[C@@H](CCCCN)C(=O)N[C@@H](CCCCN)C(=O)N[C@H](C(=O)N[C@@H](CC(C)C)C(=O)N[C@@H](CCCCN)C(=O)N[C@@H](Cc1ccc(O)cc1)C(=O)N[C@@H](CC(C)C)C(N)=O)[C@@H](C)CC` ; its MIC = 3.1 to 6.2 µM

Continuing:
Value of measured MIC for the entry `CCCC(=O)NCCCC[C@H](NC(=O)[C@H](CCCCN)NC(=O)[C@H](Cc1ccccc1)NC(=O)[C@H](CC(C)C)NC(=O)[C@H](CCCCN)NC(=O)[C@H](CCCCN)NC(C)=O)C(=O)N[C@H](C(=O)N[C@@H](CC(C)C)C(=O)N[C@@H](CCCCN)C(=O)N[C@@H](Cc1ccc(O)cc1)C(=O)N[C@@H](CC(C)C)C(N)=O)[C@@H](C)CC` : 6.2 to 12.5 µM

----------
Measured PPO gene expression, fold induction values are reported for all entries that follow.
# Tested on: defense-related genes in tomato plants
# measurement_protocol: Induction of defense gene expression of tomato plants (RT-qPCR)
# Format: in vivo, tomato cv. Rio Grande
# run_conditions: tomato leaves sprayed, 24 h; peptides and flg15 125 μM, JA 2.5 mM, ASM 300 mg/L; ΔΔCt relative to actin; above 2 = overexpression
Answer with a number only.

Short answer for `CCCC(=O)NCCCC[C@H](NC(=O)[C@H](CCCCN)NC(C)=O)C(=O)N[C@@H](CC(C)C)C(=O)N[C@@H](Cc1ccccc1)C(=O)N[C@@H](CCCCN)C(=O)N[C@@H](CCCCN)C(=O)N[C@H](C(=O)N[C@@H](CC(C)C)C(=O)N[C@@H](CCCCN)C(=O)N[C@@H](Cc1ccc(O)cc1)C(=O)N[C@@H](CC(C)C)C(N)=O)[C@@H](C)CC` : PPO gene expression, fold induction was 1.3

Noted for `CCCC(=O)NCCCC[C@H](NC(=O)[C@H](CCCCN)NC(=O)[C@H](CC(C)C)NC(=O)[C@@H](NC(=O)[C@H](CCCCN)NC(=O)[C@H](CCCCN)NC(=O)[C@H](Cc1ccccc1)NC(=O)[C@H](CC(C)C)NC(=O)[C@H](CCCCN)NC(=O)[C@H](CCCCN)NC(C)=O)[C@@H](C)CC)C(=O)N[C@@H](CC(C)C)C(N)=O` : its PPO gene expression, fold induction reads 0.5

compound `CCCCCC(=O)NCCCC[C@H](NC(=O)[C@H](CCCCN)NC(=O)[C@H](CCCCN)NC(=O)[C@H](Cc1ccccc1)NC(=O)[C@H](CC(C)C)NC(=O)[C@H](CCCCN)NC(=O)[C@H](CCCCN)NC(C)=O)C(=O)N[C@@H](CC(C)C)C(=O)N[C@@H](CCCCN)C(=O)N[C@@H](Cc1ccc(O)cc1)C(=O)N[C@@H](CC(C)C)C(N)=O` , PPO gene expression, fold induction observed: 0.7

Record `CCCC(=O)NCCCC[C@H](NC(=O)[C@H](CCCCN)NC(=O)[C@H](Cc1ccccc1)NC(=O)[C@H](CC(C)C)NC(=O)[C@H](CCCCN)NC(=O)[C@H](CCCCN)NC(C)=O)C(=O)N[C@H](C(=O)N[C@@H](CC(C)C)C(=O)N[C@@H](CCCCN)C(=O)N[C@@H](Cc1ccc(O)cc1)C(=O)N[C@@H](CC(C)C)C(N)=O)[C@@H](C)CC` , field PPO gene expression, fold induction: 1.7

Others:
Value of PPO gene expression, fold induction reported for the compound `CCCC(=O)NCCCC[C@H](NC(=O)[C@H](Cc1ccc(O)cc1)NC(=O)[C@H](CCCCN)NC(=O)[C@H](CC(C)C)NC(=O)[C@@H](NC(=O)[C@H](CCCCN)NC(=O)[C@H](CCCCN)NC(=O)[C@H](Cc1ccccc1)NC(=O)[C@H](CC(C)C)NC(=O)[C@H](CCCCN)NC(=O)[C@H](CCCCN)NC(C)=O)[C@@H](C)CC)C(N)=O` is 0.9

// recorded PPO gene expression, fold induction for `CCCC(=O)NCCCC[C@H](NC(=O)[C@@H](NC(=O)[C@H](CCCCN)NC(=O)[C@H](CCCCN)NC(=O)[C@H](Cc1ccccc1)NC(=O)[C@H](CC(C)C)NC(=O)[C@H](CCCCN)NC(=O)[C@H](CCCCN)NC(C)=O)[C@@H](C)CC)C(=O)N[C@@H](CCCCN)C(=O)N[C@@H](Cc1ccc(O)cc1)C(=O)N[C@@H](CC(C)C)C(N)=O` : 1.3

----------
# Test system: defense-related genes in tomato plants
# measurement_protocol: Induction of defense gene expression of tomato plants (RT-qPCR)
# Type: in vivo, tomato cv. Rio Grande
# run_conditions: tomato leaves sprayed, 24 h; peptides and flg15 125 μM, JA 2.5 mM, ASM 300 mg/L; ΔΔCt relative to actin; above 2 = overexpression
Overview of recorded BCB gene expression, fold induction for various compounds
No unit in the answer, please; the number alone is enough.

The cases that follow already have their BCB gene expression, fold induction on record.
Entry `CCCC(=O)NCCCC[C@H](NC(=O)[C@@H](NC(=O)[C@H](CCCCN)NC(=O)[C@H](CCCCN)NC(=O)[C@H](Cc1ccccc1)NC(=O)[C@H](CC(C)C)NC(=O)[C@H](CCCCN)NC(=O)[C@H](CCCCN)NC(C)=O)[C@@H](C)CC)C(=O)N[C@@H](CCCCN)C(=O)N[C@@H](Cc1ccc(O)cc1)C(=O)N[C@@H](CC(C)C)C(N)=O` — recorded BCB gene expression, fold induction = 1.7

Entry under test: `CC[C@H](C)[C@H](NC(=O)[C@H](CCCCN)NC(=O)[C@H](CCCCN)NC(=O)[C@H](Cc1ccccc1)NC(=O)[C@H](CC(C)C)NC(=O)[C@H](CCCCN)NC(=O)[C@@H](N)CCCCN)C(=O)N[C@@H](CC(C)C)C(=O)N[C@@H](CCCCN)C(=O)N[C@@H](Cc1ccc(O)cc1)C(=O)N[C@@H](CC(C)C)C(N)=O` . Its BCB gene expression, fold induction was 0.8

Turning now to a further compound:
So for `CCCCCC(=O)NCCCC[C@H](NC(=O)[C@H](CC(C)C)NC(=O)[C@H](CCCCN)NC(=O)[C@H](CCCCN)NC(C)=O)C(=O)N[C@@H](CCCCN)C(=O)N[C@@H](CCCCN)C(=O)N[C@H](C(=O)N[C@@H](CC(C)C)C(=O)N[C@@H](CCCCN)C(=O)N[C@@H](Cc1ccc(O)cc1)C(=O)N[C@@H](CC(C)C)C(N)=O)[C@@H](C)CC` , the logged BCB gene expression, fold induction turned out to be 1.0

----------
# Tested on: Penicillium expansum EPS26
# measurement_protocol: MIC, antifungal growth inhibition in microtiter plates (PDB)
# Type: cell-based
# run_conditions: Pe, 22°C, seven days, OD 600 nm, lowest concentration with no growth, given as interval of tested concentrations, three replicates, experiment repeated twice
quantity_measured: MIC

Field MIC (entry `CCCC(=O)NCCCC[C@H](NC(=O)[C@H](CCCCN)NC(=O)[C@H](CC(C)C)NC(=O)[C@@H](NC(=O)[C@H](CCCCN)NC(=O)[C@H](CCCCN)NC(=O)[C@H](Cc1ccccc1)NC(=O)[C@H](CC(C)C)NC(=O)[C@H](CCCCN)NC(=O)[C@H](CCCCN)NC(C)=O)[C@@H](C)CC)C(=O)N[C@@H](CC(C)C)C(N)=O` ) reads 6.2 to 12.5 µM

----------
# Tested on: defense-related genes in tomato plants
# measurement_protocol: Induction of defense gene expression of tomato plants (RT-qPCR)
# Assay type: in vivo, tomato cv. Rio Grande
# run_conditions: tomato leaves sprayed, 24 h; peptides and flg15 125 μM, JA 2.5 mM, ASM 300 mg/L; ΔΔCt relative to actin; above 2 = overexpression
Recorded PPO gene expression, fold induction, one value per entry.

Please review the following examples before continuing.
Kindly note the recorded PPO gene expression, fold induction for `CCCCCC(=O)NCCCC[C@H](NC(=O)[C@H](CC(C)C)NC(=O)[C@H](CCCCN)NC(=O)[C@H](CCCCN)NC(C)=O)C(=O)N[C@@H](CCCCN)C(=O)N[C@@H](CCCCN)C(=O)N[C@H](C(=O)N[C@@H](CC(C)C)C(=O)N[C@@H](CCCCN)C(=O)N[C@@H](Cc1ccc(O)cc1)C(=O)N[C@@H](CC(C)C)C(N)=O)[C@@H](C)CC` , which is 0.6

So for `CC[C@H](C)[C@H](NC(=O)[C@H](CCCCN)NC(=O)[C@H](CCCCN)NC(=O)[C@H](Cc1ccccc1)NC(=O)[C@H](CC(C)C)NC(=O)[C@H](CCCCN)NC(=O)[C@@H](N)CCCCN)C(=O)N[C@@H](CC(C)C)C(=O)N[C@@H](CCCCN)C(=O)N[C@@H](Cc1ccc(O)cc1)C(=O)N[C@@H](CC(C)C)C(N)=O` , the logged PPO gene expression, fold induction turned out to be 3.2

// PPO gene expression, fold induction lookup, compound = `CCCCCC(=O)NCCCC[C@H](NC(=O)[C@H](Cc1ccc(O)cc1)NC(=O)[C@H](CCCCN)NC(=O)[C@H](CC(C)C)NC(=O)[C@@H](NC(=O)[C@H](CCCCN)NC(=O)[C@H](CCCCN)NC(=O)[C@H](Cc1ccccc1)NC(=O)[C@H](CC(C)C)NC(=O)[C@H](CCCCN)NC(=O)[C@H](CCCCN)NC(C)=O)[C@@H](C)CC)C(N)=O` , result: 1.7

Continuing:
// recorded PPO gene expression, fold induction for CC/C=C\C[C@H]1C(=O)CC[C@@H]1CC(=O)O [JA, jasmonic acid, reference compound] : >50

Cited source for all entries: paper PMC6063448
